System: HT-29
Assay: NCI tumour cell line growth inhibition, 48 h
Active and inactive are the calls of the source. Rule as the data show it: active = GI50 up to about 1.1 µM and inactive = higher.
measuredProperty: GI50

Log: HT-29, molecule C=C(C)[C@H]1[C@@H]2OC(=O)[C@H]1[C@]1(O)C[C@H]3OC34C(=O)O[C@H]2[C@@]41C.CC(C)(O)[C@H]1[C@@H]2OC(=O)[C@H]1[C@]1(O)C[C@H]3OC34C(=O)O[C@H]2[C@@]41C (some centres undefined) , GI50 = > 100 µM (inactive)

Kindly note: HT-29, COc1ccc(NC(=S)NC(=O)c2ccc3c(c2)Sc2ccccc2O3)c([N+](=O)[O-])c1 , GI50 value reported: 76.6 µM (inactive)

# value of GI50, HT-29, item CN(C)CCNC(=O)c1cc(Cl)cc2ccc(-c3ccccc3)nc12 = 2.22 µM (inactive)

Entry Cc1c(C#N)c(N)n(C2OC(CO)C(O)C(O)C2O)c(=S)c1C#N (centres undefined) , HT-29 data, GI50 value: > 100 µM (inactive)

Item COc1cc(Br)c(/C=N/N=C(\N)NO)cc1OC ; assay system HT-29; GI50 reported as 15 µM (inactive)
